target: mGPR65 (Mus musculus); construct: expressed in transfected cells; host or cells: HeLa (ATCC CCL-2), lentiviral transduction, pLX317; assay: cAMP detection in HeLa expression cell line, mGPR65; format: cell-based; conditions: 2nd mGPR column pair; NA = no activity; read-out: mGPR EC50
Sequence (Q61038 whole entry): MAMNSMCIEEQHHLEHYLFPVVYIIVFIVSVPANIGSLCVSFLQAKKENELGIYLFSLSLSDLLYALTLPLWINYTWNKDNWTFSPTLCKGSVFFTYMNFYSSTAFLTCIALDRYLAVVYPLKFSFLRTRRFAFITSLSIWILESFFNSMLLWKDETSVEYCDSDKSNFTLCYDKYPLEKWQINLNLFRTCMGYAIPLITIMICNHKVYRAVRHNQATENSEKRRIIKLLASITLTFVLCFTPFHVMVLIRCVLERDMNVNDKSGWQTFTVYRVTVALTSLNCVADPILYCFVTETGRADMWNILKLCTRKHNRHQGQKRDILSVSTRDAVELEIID
measurement-name: EC50
Quick note: number first, unit second.

See these solved cases before continuing.
Cc1ccc(NC(=O)c2cnn3c(O)cc(-c4ccc(COC(C)C)cc4)nc23)c(Cl)c1 :: 1.14 µM
COc1cc(-c2cc(O)n3ncc(C(=O)Nc4ccc(C)cc4)c3n2)ccc1F :: 0.781 µM
COCc1ccc(-c2cc(O)n3ncc(C(=O)NCc4ccc(C)cc4)c3n2)cc1 :: 1.44 µM
COCc1ccc(-c2cc(O)n3ncc(C(=O)Nc4cccc(C)c4)c3n2)cc1 :: 1.51 µM
Cc1ccc(NC(=O)c2cnn3c(O)cc(-c4ccc(N5CCOCC5)cc4)nc23)cc1 :: 1.07 µM
Cc1ccc(NC(=O)c2cnn3c(O)cc(-c4ccc(-c5ccccc5)cc4)nc23)cc1 :: 0.528 µM
Cc1ccc(NC(=O)c2cnn3c(O)cc(-c4ccc5ccccc5c4)nc23)cc1 :: 0.269 µM
Cc1ncc(NC(=O)c2cnn3c(O)cc(-c4ccc(COC(C)C)cc4)nc23)cn1 :: 5.04 µM

Task item: For `Cc1ccc(NC(=O)c2cnn3c(O)cc(-c4ccc(COC(C)C)cc4)nc23)cn1` , write its EC50.
Reply: 1.61 µM

Task item: For `Cc1ccc(NC(=O)c2cnn3c(O)cc(-c4ccc(N5CCOCC5)nc4)nc23)cc1` , write its EC50.
Reply: 4.29 µM

Task item: For `COc1ccc(-c2cc(O)n3ncc(C(=O)Nc4ccc(C)cc4)c3n2)cc1` , write its EC50.
Reply: 32.3 µM
